- Test description: Solubility of the compound in water at 22 degC
- Type: physicochemical
Readout name: log10 solubility (log10 of the value in µg/mL)
Could you please treat all values as log10 of solubility in µg/mL?

In the examples that follow, each entry is paired with its recorded log10 solubility.
• CS(=O)(=O)O.N=C(N)c1ccc(-c2nc3ccc(N)cc3s2)cc1 = 4.10
• CS(=O)(=O)O.Nc1ccc(-c2nc3ccc(C4=NCCN4)cc3s2)cc1 = 5.11

log10 solubility in this record for Cl.Nc1ccc(-c2nc3ccc(C4=NCCN4)cc3s2)cc1.O : 2.30

log10 solubility in this record for CS(=O)(=O)O.Nc1ccc2nc(-c3ccc(C4=NCCN4)cc3)sc2c1 : 5.16

log10 solubility in this record for Cl.N=C(N)c1ccc2nc(-c3ccc(N)cc3)sc2c1.O : 3.52

log10 solubility in this record for Cl.Nc1ccc2nc(-c3ccc(C4=NCCN4)cc3)sc2c1.O : 2.78
